# Tested on: Mycobacterium avium
# assay details: Antimycobacterial activity against Mycobacterium avium CNCTC My 330/88 after 21 days by microdilution method
# Type: functional
# recorded conditions: CNCTC My 330/88, 504 h
measured attribute: MIC (µM)
Reply numerically in µM, unit not repeated.

{"smiles structure": "Cc1ccc2oc(=O)n(Cc3ccccc3)c(=S)c2c1", "tested target": "Mycobacterium avium", "numeric value": 2}
{"smiles structure": "O=c1oc2ccc(Cl)cc2c(=O)n1Cc1ccc(Cl)c(Cl)c1", "tested target": "Mycobacterium avium", "numeric value": 32}
{"smiles structure": "O=c1oc2ccc(Br)cc2c(=O)n1Cc1ccccc1", "tested target": "Mycobacterium avium", "numeric value": 62.5}
{"smiles structure": "O=c1oc2ccccc2c(=S)n1Cc1ccc(Cl)c(Cl)c1", "tested target": "Mycobacterium avium", "numeric value": 1}
{"smiles structure": "S=c1oc2ccccc2c(=S)n1Cc1ccc(Cl)c(Cl)c1", "tested target": "Mycobacterium avium", "numeric value": 0.5}
{"smiles structure": "CO[C@H]1/C=C/O[C@@]2(C)Oc3c(C)c(O)c4c(O)c(c(/C=N/N5CCN(C)CC5)c(O)c4c3C2=O)NC(=O)/C(C)=C\\C=C\\[C@H](C)[C@H](O)[C@@H](C)[C@@H](O)[C@@H](C)[C@H](OC(C)=O)[C@@H]1C", "tested target": "Mycobacterium avium", "numeric value": 65}
{"smiles structure": "O=c1oc2ccccc2c(=S)n1Cc1ccccc1", "tested target": "Mycobacterium avium", "numeric value": 8}
{"smiles structure": "O=c1oc2ccc(Cl)cc2c(=O)n1Cc1ccccc1", "tested target": "Mycobacterium avium", "numeric value": 62.5}
{"smiles structure": "O=c1oc2ccccc2c(=O)n1Cc1ccc(Cl)c(Cl)c1", "tested target": "Mycobacterium avium", "numeric value": 32}
{"smiles structure": "O=c1oc2c(Cl)cc(Cl)cc2c(=O)n1Cc1ccc(Cl)c(Cl)c1", "tested target": "Mycobacterium avium", "numeric value": 125}

In: # query: MIC of entry O=c1oc2ccccc2c(=O)n1Cc1ccccc1
Out: 62.5

In: # query: MIC of entry Fc1ccc(Cn2c(=S)oc3ccc(Cl)cc3c2=S)cc1
Out: 16

In: # query: MIC of entry S=c1oc2ccc(Cl)cc2c(=S)n1Cc1ccc(Cl)c(Cl)c1
Out: 32

----------
# System: Mycobacterium avium
# assay details: Antimycobacterial activity against Mycobacterium avium CNCTC My 330/88 after 14 days by microdilution method
# Assay type: functional
# recorded conditions: CNCTC My 330/88, 336 h
measured attribute: MIC
Write the quantity with the unit trailing the number.

Recorded MIC, per entry:
{"smiles structure": "CO[C@H]1/C=C/O[C@@]2(C)Oc3c(C)c(O)c4c(O)c(c(/C=N/N5CCN(C)CC5)c(O)c4c3C2=O)NC(=O)/C(C)=C\\C=C\\[C@H](C)[C@H](O)[C@@H](C)[C@@H](O)[C@@H](C)[C@H](OC(C)=O)[C@@H]1C", "MIC": "16 µM"}
{"smiles structure": "O=c1oc2ccc(Br)cc2c(=O)n1Cc1ccc(Cl)c(Cl)c1", "MIC": "32 µM"}
{"smiles structure": "Cc1ccc2oc(=O)n(Cc3ccccc3)c(=O)c2c1", "MIC": "32 µM"}

Alright, here's another compound for you.
In: # query: MIC of entry O=c1oc2ccc(Cl)cc2c(=O)n1Cc1ccccc1
Out: 32 µM

----------
# Tested on: Mycobacterium tuberculosis
# assay details: Antimycobacterial activity against Mycobacterium tuberculosis CNCTC My 331/88 after 21 days by microdilution method
# Type: functional
# recorded conditions: CNCTC My 331/88, 504 h
We label by threshold. Values of MIC strictly beneath 2 µM are t. Values of 2 µM and up are f.

// below: answered compounds
{"smiles structure": "O=c1oc2ccc(Cl)cc2c(=O)n1Cc1ccc(Cl)c(Cl)c1", "assigned category": "f"}
{"smiles structure": "O=c1oc2ccc(Br)cc2c(=O)n1Cc1ccccc1", "assigned category": "f"}
{"smiles structure": "O=c1oc2ccc(Cl)cc2c(=S)n1Cc1ccc(F)cc1", "assigned category": "t"}
{"smiles structure": "O=c1oc2ccccc2c(=O)n1Cc1ccc(Cl)c(Cl)c1", "assigned category": "f"}
{"smiles structure": "S=c1oc2ccc(Cl)cc2c(=S)n1Cc1ccc(Cl)c(Cl)c1", "assigned category": "f"}
{"smiles structure": "O=c1oc2ccc(Cl)cc2c(=S)n1Cc1ccc(Cl)c(Cl)c1", "assigned category": "f"}
{"smiles structure": "Cc1ccc2oc(=O)n(Cc3ccccc3)c(=S)c2c1", "assigned category": "t"}
{"smiles structure": "O=c1oc2ccccc2c(=O)n1Cc1ccccc1", "assigned category": "f"}
{"smiles structure": "O=c1oc2ccccc2c(=S)n1Cc1ccc(Cl)c(Cl)c1", "assigned category": "t"}

Consider the record given below.
In: Does the reported MIC of the following compound sit strictly below 2 µM? Cc1ccc2oc(=O)n(Cc3ccccc3)c(=O)c2c1
Out: f

----------
Documented MIC across a set of compounds
# Test system: Mycobacterium kansasii
# assay details: Antimycobacterial activity against Mycobacterium kansasii CNCTC My 235/80 after 14 days by microdilution method
# Assay type: functional
# recorded conditions: CNCTC My 235/80, 336 h
Reply numerically in µM, unit not repeated.

Recorded MIC, per entry:
{"compound": "S=c1oc2ccc(Cl)cc2c(=S)n1Cc1ccc(Cl)c(Cl)c1", "display unit": "µM", "MIC": 32}
{"compound": "O=c1oc2ccccc2c(=S)n1Cc1ccccc1", "display unit": "µM", "MIC": 4}
{"compound": "O=c1oc2ccccc2c(=S)n1Cc1ccc(Cl)c(Cl)c1", "display unit": "µM", "MIC": 2}

In: # query: MIC of entry Fc1ccc(Cn2c(=S)oc3ccc(Cl)cc3c2=S)cc1
Out: 8

In: # query: MIC of entry O=c1oc2ccc(Cl)cc2c(=S)n1Cc1ccc(Cl)c(Cl)c1
Out: 62.5

In: # query: MIC of entry O=c1oc2ccc(Cl)cc2c(=S)n1Cc1ccccc1
Out: 8

In: # query: MIC of entry O=c1oc2ccc(Cl)cc2c(=O)n1Cc1ccccc1
Out: 32

In: # query: MIC of entry CO[C@H]1/C=C/O[C@@]2(C)Oc3c(C)c(O)c4c(O)c(c(/C=N/N5CCN(C)CC5)c(O)c4c3C2=O)NC(=O)/C(C)=C\C=C\[C@H](C)[C@H](O)[C@@H](C)[C@@H](O)[C@@H](C)[C@H](OC(C)=O)[C@@H]1C [RIFAMPIN]
Out: 0.25

In: # query: MIC of entry O=c1oc2ccc(Br)cc2c(=S)n1Cc1ccc(Cl)c(Cl)c1
Out: 16

In: # query: MIC of entry O=c1oc2ccc(Cl)cc2c(=S)n1Cc1ccc(F)cc1
Out: 4

----------
# Tested on: Mycobacterium kansasii
# assay details: Antimycobacterial activity against Mycobacterium kansasii CNCTC My 235/80 after 14 days by microdilution method
# Type: functional
# recorded conditions: CNCTC My 235/80, 336 h
measured attribute: MIC

Recorded MIC, per entry:
{"smiles structure": "O=c1oc2ccccc2c(=O)n1Cc1ccc(Cl)c(Cl)c1", "tested target": "Mycobacterium kansasii", "result": "62.5 µM"}
{"smiles structure": "O=c1oc2ccc(Br)cc2c(=O)n1Cc1ccccc1", "tested target": "Mycobacterium kansasii", "result": "62.5 µM"}
{"smiles structure": "S=c1oc2ccccc2c(=S)n1Cc1ccccc1", "tested target": "Mycobacterium kansasii", "result": "2 µM"}

In: # query: MIC of entry S=c1oc2ccccc2c(=S)n1Cc1ccc(Cl)c(Cl)c1
Out: 4 µM

In: # query: MIC of entry Cc1ccc2oc(=O)n(Cc3ccccc3)c(=O)c2c1
Out: 62.5 µM

----------
# Tested on: Mycobacterium tuberculosis
# assay details: Antimycobacterial activity against Mycobacterium tuberculosis CNCTC My 331/88 after 21 days by microdilution method
# Type: functional
# recorded conditions: CNCTC My 331/88, 504 h
measured attribute: MIC
Write the quantity with the unit trailing the number.

{"smiles structure": "O=c1oc2ccc(Cl)cc2c(=O)n1Cc1ccccc1", "result": "125 µM"}
{"smiles structure": "O=c1oc2c(Cl)cc(Cl)cc2c(=O)n1Cc1ccc(Cl)c(Cl)c1", "result": "125 µM"}
{"smiles structure": "O=c1oc2ccc(Br)cc2c(=S)n1Cc1ccc(Cl)c(Cl)c1", "result": "4 µM"}
{"smiles structure": "O=c1oc2ccc(Br)cc2c(=S)n1Cc1ccccc1", "result": "2 µM"}

In: # query: MIC of entry O=c1oc2ccc(Cl)cc2c(=S)n1Cc1ccccc1
Out: 2 µM

----------
# Test system: Mycobacterium avium
# assay details: Antimycobacterial activity against Mycobacterium avium CNCTC My 330/88 after 14 days by microdilution method
# Format: functional
# recorded conditions: CNCTC My 330/88, 336 h
measured attribute: MIC (µM)
Reply numerically in µM, unit not repeated.

In: # query: MIC of entry O=c1oc2ccccc2c(=O)n1Cc1ccc(Cl)c(Cl)c1
Out: 32

In: # query: MIC of entry O=c1oc2ccc(Br)cc2c(=S)n1Cc1ccc(Cl)c(Cl)c1
Out: 8

In: # query: MIC of entry S=c1oc2ccccc2c(=S)n1Cc1ccccc1
Out: 1

In: # query: MIC of entry O=c1oc2ccc(Br)cc2c(=O)n1Cc1ccccc1
Out: 62.5

In: # query: MIC of entry O=c1oc2ccc(Cl)cc2c(=O)n1Cc1ccc(F)cc1
Out: 32
